Origin of the recorded values: patent US20250026752A1

Give measured pEC50 for each item. Keep answers brief.
molecular target: human mAChR M4 (Homo sapiens, UniProt P08173); construct: expressed in transfected cells; host or cells: CHO-K1 (ATCC), stably expressing hM4 and Gqi5; experiment: mAChR M4 cell-based functional assay: calcium flux (Fluo-4, FDSS), positive allosteric modulator activity on the EC20 acetylcholine response, hM4-Gqi5 CHO-K1 cells; conditions: human M4; PAM activity on EC20 acetylcholine response, calcium flux; read-out: Human M4 EC50
Sequence (P08173 whole entry): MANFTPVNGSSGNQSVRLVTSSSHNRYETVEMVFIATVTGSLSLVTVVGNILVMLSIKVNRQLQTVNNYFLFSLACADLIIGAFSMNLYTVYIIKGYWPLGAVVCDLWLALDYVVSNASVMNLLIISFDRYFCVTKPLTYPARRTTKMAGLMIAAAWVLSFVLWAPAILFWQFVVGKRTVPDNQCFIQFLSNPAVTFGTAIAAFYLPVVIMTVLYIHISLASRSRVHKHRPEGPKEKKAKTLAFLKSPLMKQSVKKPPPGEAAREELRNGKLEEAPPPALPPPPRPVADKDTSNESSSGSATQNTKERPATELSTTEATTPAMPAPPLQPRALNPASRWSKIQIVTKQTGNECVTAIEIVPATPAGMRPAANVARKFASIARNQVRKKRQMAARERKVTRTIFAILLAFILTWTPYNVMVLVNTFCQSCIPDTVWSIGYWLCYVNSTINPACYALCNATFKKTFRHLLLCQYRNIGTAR
Answers are plain numbers, as −log10 of the molar value.

smilesData	pEC50
Clc1ccc2ncnc(N3CCc4ncc(-c5ccc(C6CC6)nc5)cc4C3)c2c1	6.42
Cc1nc(N2CCc3ncc(-c4cnc(C)s4)cc3C2)c2cc(C(F)(F)F)ccc2n1	5.71

Now for another entry.
pEC50 reading for Fc1ccc2ncnc(N3CCc4ncc(Nc5ccncc5F)cc4C3)c2c1 : 8.00
